Test: Cytotoxicity against human U937 cells assessed as cell viability after 72 hrs by MTT assay
Format: cell-based, U-937
Details: read-out: LC50
Observation Type: CC50 at 72 h

INSERT INTO measurements (molecule, data_value) VALUES
  ('COc1cc(C2CC(c3ccc(C)cc3)=NN2C=O)ccc1Oc1nc2c(c(=O)n(C)c(=O)n2C)n1C (stereo not drawn)', '> 200 µg/mL'),
  ('COc1cc(C2CC(c3ccc(Cl)cc3)=NN2)ccc1Oc1nc2c(c(=O)n(C)c(=O)n2C)n1C (stereo not drawn)', '34.6 µg/mL'),
  ('COc1cc(C2CC(c3ccc(C)cc3)=NN2)ccc1Oc1nc2c(c(=O)n(C)c(=O)n2C)n1C (stereo not drawn)', '53.2 µg/mL'),
  ('COc1cc(C2CC(c3ccc(C)cc3)=NN2C(C)=O)ccc1Oc1nc2c(c(=O)n(C)c(=O)n2C)n1C (stereo not drawn)', '> 200 µg/mL'),
  ('COc1cc(C2CC(c3cc(OC)c(OC)c(OC)c3)=NN2C=O)ccc1Oc1nc2c(c(=O)n(C)c(=O)n2C)n1C (stereo not drawn)', '> 200 µg/mL'),
  ('COc1ccc(C2=Nc3c(C)nn(-c4ccccc4)c3NC(c3ccc(Oc4nc5c(c(=O)n(C)c(=O)n5C)n4C)c(OC)c3)C2)cc1 (stereo not drawn)', '> 200 µg/mL'),
  ('COc1cc(C2CC(c3cc(OC)c(OC)c(OC)c3)=Nc3c(C)nn(-c4ccccc4)c3N2)ccc1Oc1nc2c(c(=O)n(C)c(=O)n2C)n1C (stereo not drawn)', '> 200 µg/mL'),
  ('COc1cc(/C=C/C(=O)c2ccc(Br)cc2)ccc1Oc1nc2c(c(=O)n(C)c(=O)n2C)n1C', '96.5 µg/mL');

====

Assay: Hemolytic activity in human RBC after 48 hrs by spectrophotometric analysis
Type: ADME, cell-based, Erythrocyte
Conditions: human red blood cells (RBC), read-out: LC50
Observation Type: HC50 at 48 h

INSERT INTO measurements (compound, data_value) VALUES
  ('COc1cc(/C=C/C(=O)c2ccc(C)cc2)ccc1Oc1nc2c(c(=O)n(C)c(=O)n2C)n1C', '> 200 µg/mL'),
  ('COc1cc(C2CC(c3ccc(Br)cc3)=NN2)ccc1Oc1nc2c(c(=O)n(C)c(=O)n2C)n1C (stereo not drawn)', '> 200 µg/mL'),
  ('COc1cc(C2CC(c3cc(OC)c(OC)c(OC)c3)=Nc3c(C)nn(-c4ccccc4)c3N2)ccc1Oc1nc2c(c(=O)n(C)c(=O)n2C)n1C (stereo not drawn)', '> 200 µg/mL');

====

Experiment: Cytotoxicity against human U937 cells assessed as cell viability after 72 hrs by MTT assay
Type: cell-based, U-937
Settings: read-out: LC50
Observation Type: CC50 at 72 h (µg/mL)

INSERT INTO results (molecule, bound_type, data_value) VALUES
  ('COc1cc(/C=C/C(=O)c2ccc(Cl)cc2)ccc1Oc1nc2c(c(=O)n(C)c(=O)n2C)n1C', '=', 102),
  ('COc1cc(C2CC(c3ccc(Cl)cc3)=NN2C(C)=O)ccc1Oc1nc2c(c(=O)n(C)c(=O)n2C)n1C (stereo not drawn)', '>', 200),
  ('COc1ccc(C2=NN(C(C)=O)C(c3ccc(Oc4nc5c(c(=O)n(C)c(=O)n5C)n4C)c(OC)c3)C2)cc1 (stereo not drawn)', '>', 200),
  ('COc1cc(/C=C/C(=O)c2cc(OC)c(OC)c(OC)c2)ccc1Oc1nc2c(c(=O)n(C)c(=O)n2C)n1C', '=', 3.2),
  ('COc1cc(/C=C/C(=O)c2ccc(C)cc2)ccc1Oc1nc2c(c(=O)n(C)c(=O)n2C)n1C', '=', 27.5),
  ('O=C(Cn1ccnc1[N+](=O)[O-])NCc1ccccc1 [BENZNIDAZOLE]', '=', 180),
  ('COc1cc(/C=C/C(=O)c2ccccc2)ccc1Oc1nc2c(c(=O)n(C)c(=O)n2C)n1C', '=', 131),
  ('COc1cc(C2CC(c3ccc(F)cc3)=Nc3c(C)nn(-c4ccccc4)c3N2)ccc1Oc1nc2c(c(=O)n(C)c(=O)n2C)n1C (stereo not drawn)', '>', 200);
